Every entry's value here was drawn from patent US20260295053A1.

Tested on: AsPC-1 cells
assay.explanation: AsPC-1 cell proliferation assay (CellTiter Glo)
Format: cell-based
measurement.setup: Homo sapiens, ASPC1, 144 h, 6 days

compound	IC50
CO[C@@H](C)COc1nc(N2CCNCC[C@H]2C)c2cc(C3CC3)c(-c3c(C)c(F)cc4[nH]ncc34)c(OCc3ccc(-c4cn([C@H](C(=O)N5C[C@H](O)C[C@H]5C(=O)N[C@H](c5ccc(-c6scnc6C)cc5)[C@H](C)O)C(C)C)nn4)cc3)c2n1 [Example 190]	< 10 nM
CO[C@@H](C)COc1nc(N2C[C@@H]3C[C@H]2CN3)c2cc(C3CC3)c(-c3c(C)c(F)cc4[nH]ncc34)c(OCc3ccc(-c4cn([C@H](C(=O)N5C[C@H](O)C[C@H]5C(=O)N[C@H](c5ccc(-c6scnc6C)cc5)[C@H](C)O)C(C)C)nn4)cc3)c2n1 [Example 82]	< 10 nM
